Could you please report measured IC50 for the items listed next?
- Assay target: Induced myeloid leukemia cell differentiation protein Mcl-1 (Homo sapiens)
- Procedure text: blockers of Bid binding to Mcl-1 – biochemical, TR-FRET, dose response (AID 1418)
- Run parameters: Mcl-1/Bid peptide binding, TR-FRET (europium/Dy647), 2 hr
Activity calls are given as the source filed them. The rule behind the calls is not given here.

Prompt: Tell me reported IC50 for CCNC(=O)c1cc(S(=O)(=O)N(C)C)c(Cl)cc1Cl , tested with Induced myeloid leukemia cell differentiation protein Mcl-1 (Homo sapiens).
Response: > 54 µM (inactive)

Prompt: Could you share what IC50 was measured for Cc1cccc2c3nc4ccccc4nc3n(CCCN3C(=O)c4ccccc4C3=O)c12 , tested on Induced myeloid leukemia cell differentiation protein Mcl-1 (Homo sapiens)?
Response: > 54 µM (inactive)

Prompt: Request: IC50, test system Induced myeloid leukemia cell differentiation protein Mcl-1 (Homo sapiens), entry CC(C)(C)CC(=O)O/N=C(\N)c1ccncc1
Response: > 54 µM (inactive)

Prompt: Requested read-out IC50, target or system Induced myeloid leukemia cell differentiation protein Mcl-1 (Homo sapiens), entry C#CCOCCOCCOCCNc1nc(N2CCN(C(=O)[C@H](CCC(=O)O)n3cc(C(N)CC(C)C)nn3)CC2)nc(N2CCN(C(=O)[C@H](CCC(=O)O)n3cc(C(N)CC(C)C)nn3)CC2)n1 (some centres undefined)
Response: 15.2 µM

Prompt: Item CCOC(=O)Nc1ccc2c(c1)N(C(=O)OCCN(C)C)c1ccccc1CC2 with Induced myeloid leukemia cell differentiation protein Mcl-1 (Homo sapiens) - IC50?
Response: > 54 µM (inactive)

Prompt: Short answer please: IC50, Induced myeloid leukemia cell differentiation protein Mcl-1 (Homo sapiens), entry CC(=O)C1=C(C)NC(SCC(N)=O)=C(C#N)C1c1cccnc1 (centres undefined)
Response: > 54 µM (inactive)

Prompt: Report IC50 for Cc1cccc(C)c1NC(=O)C1c2ccccc2Oc2ccccc21 tested on Induced myeloid leukemia cell differentiation protein Mcl-1 (Homo sapiens).
Response: > 54 µM (inactive)

Prompt: For the record Cc1sc(NC(=O)c2cc(-c3ccc(Cl)cc3)nc3ccccc23)c(C(N)=O)c1C , what value of IC50 is listed for Induced myeloid leukemia cell differentiation protein Mcl-1 (Homo sapiens)?
Response: 0.92 µM

Prompt: Under Induced myeloid leukemia cell differentiation protein Mcl-1 (Homo sapiens): IC50 value of O=[N+]([O-])c1cc(Br)c(O)c(/C=N/Nc2nnnn2-c2cccc3ccccc23)c1 ?
Response: 13.9 µM
